The measurements presented in this section are drawn from the nanobody polyreactivity screen of Harvey et al. (2022).

Protocol summary: yeast display, Sf9 membrane polyspecificity reagent, FACS + sequencing; frameworks hold sequencing errors
Assay metric: polyreactivity (PSR sort gate)

- QVQLVQSRGGLVQAGGSLRLSCAASGYIFWYYVKGWNRQAPGKERELVASITIGGGRTYYADSVKGRFTISRDFAKNSVYLQMNCMKPEDTAVYYCAAVTTPYNSDFDYWGQGTQVTVSS: low polyreactivity
- QVQLVESGGGLVQAGGRLRLSCAASGRTLATFAMGWSRQAPGKERELVAAITFSGGGSTYYADSVKGRFTISRDNAKNTVYLQMKSLKPEDTADYYCAAGPYYSLFGYGSRDNYRYYYWGQGTQVTVSS: high polyreactivity
- QVQLVESGGGLVQAGGSLRLSCAASGSTFGRYAMGWYRQAPGKERELVAAISARGGSTYYADSVKGRFTISRDNAKNTVYLQMNSLKPEDTAVYYCNVDYLLHGGRFDYWGQGTQVTVSS: high polyreactivity
- QVQLVESGGGLVQAGGSLRLSCAASGSIFDAYAMGWYRQAPGKERELVAGITSGGSTNYADSVKGRFTISRDNAKNSVYLQMNSLKPEDTAVYYCAAQCDYANIYLIFNYWGQGTQVTVSS: low polyreactivity
- QVQLVESGGGLVQEGGSLRLSCAASGRIFWSYAMGWYRQAPGKERELVAAITWRTGRTYYADSVKGRFTISRDNAKNTVYLQMNSLKPEDTAVYYCAAEGYLGGQSYNGLNYDSWGQGTQVTVSS: low polyreactivity
